# testedSystem: human Nav1.5 (Homo sapiens (Human), UniProt Q14524)
# Sequence (Q14524 whole entry): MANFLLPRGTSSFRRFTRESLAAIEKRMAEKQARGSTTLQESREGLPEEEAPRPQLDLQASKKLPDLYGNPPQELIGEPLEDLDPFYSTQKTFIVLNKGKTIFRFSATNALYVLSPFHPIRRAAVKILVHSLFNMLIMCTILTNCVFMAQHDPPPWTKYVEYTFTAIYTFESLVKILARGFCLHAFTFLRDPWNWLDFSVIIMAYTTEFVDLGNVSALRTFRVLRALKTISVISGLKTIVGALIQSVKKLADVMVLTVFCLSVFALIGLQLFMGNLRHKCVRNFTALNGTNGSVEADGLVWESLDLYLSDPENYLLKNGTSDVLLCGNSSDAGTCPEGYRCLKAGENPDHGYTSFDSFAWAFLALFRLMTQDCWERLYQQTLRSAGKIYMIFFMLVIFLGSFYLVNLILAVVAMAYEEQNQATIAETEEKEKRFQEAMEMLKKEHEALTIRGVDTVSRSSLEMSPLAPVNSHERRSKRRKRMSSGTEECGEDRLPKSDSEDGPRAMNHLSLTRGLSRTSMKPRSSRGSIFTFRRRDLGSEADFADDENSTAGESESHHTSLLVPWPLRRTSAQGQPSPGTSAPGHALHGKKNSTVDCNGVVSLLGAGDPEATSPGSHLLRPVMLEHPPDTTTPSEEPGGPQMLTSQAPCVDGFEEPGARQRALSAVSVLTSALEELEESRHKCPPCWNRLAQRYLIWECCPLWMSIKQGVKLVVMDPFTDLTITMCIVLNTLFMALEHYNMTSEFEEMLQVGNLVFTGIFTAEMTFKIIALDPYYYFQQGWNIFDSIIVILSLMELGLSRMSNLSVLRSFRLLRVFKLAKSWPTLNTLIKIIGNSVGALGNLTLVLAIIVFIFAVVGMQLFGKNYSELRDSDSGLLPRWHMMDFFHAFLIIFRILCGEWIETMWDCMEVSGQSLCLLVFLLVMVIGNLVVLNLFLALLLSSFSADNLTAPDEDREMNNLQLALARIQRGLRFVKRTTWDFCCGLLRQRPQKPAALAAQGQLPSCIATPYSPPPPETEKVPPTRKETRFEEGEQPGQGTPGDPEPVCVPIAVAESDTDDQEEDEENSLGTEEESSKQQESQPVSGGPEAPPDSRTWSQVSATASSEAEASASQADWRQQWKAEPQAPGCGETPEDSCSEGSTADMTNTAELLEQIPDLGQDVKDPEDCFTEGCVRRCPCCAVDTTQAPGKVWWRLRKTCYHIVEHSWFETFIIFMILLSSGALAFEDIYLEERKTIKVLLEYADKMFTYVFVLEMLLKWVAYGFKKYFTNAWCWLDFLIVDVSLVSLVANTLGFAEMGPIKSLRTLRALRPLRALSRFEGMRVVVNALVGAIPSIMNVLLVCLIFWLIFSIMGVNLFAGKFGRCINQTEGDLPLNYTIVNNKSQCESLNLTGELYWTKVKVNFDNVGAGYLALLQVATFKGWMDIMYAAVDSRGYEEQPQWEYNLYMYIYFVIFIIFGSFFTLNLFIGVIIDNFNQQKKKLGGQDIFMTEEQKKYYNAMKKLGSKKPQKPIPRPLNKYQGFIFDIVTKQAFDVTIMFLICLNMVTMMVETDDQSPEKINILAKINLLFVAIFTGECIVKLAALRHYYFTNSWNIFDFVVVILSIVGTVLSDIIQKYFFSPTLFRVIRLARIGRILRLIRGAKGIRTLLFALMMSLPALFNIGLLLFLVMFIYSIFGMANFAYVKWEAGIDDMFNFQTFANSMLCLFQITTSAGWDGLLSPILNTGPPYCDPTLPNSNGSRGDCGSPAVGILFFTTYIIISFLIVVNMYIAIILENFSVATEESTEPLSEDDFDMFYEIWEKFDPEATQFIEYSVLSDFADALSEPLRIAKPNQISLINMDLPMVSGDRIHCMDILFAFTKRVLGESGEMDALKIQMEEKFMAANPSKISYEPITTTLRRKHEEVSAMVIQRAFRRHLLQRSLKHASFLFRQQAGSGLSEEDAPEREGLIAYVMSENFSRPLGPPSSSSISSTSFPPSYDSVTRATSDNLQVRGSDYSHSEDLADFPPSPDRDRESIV
# experimentSummary: Qpatch automated patch-clamp, peak Nav1.5 current inhibition, 5-Hz AF-like assay (holding potential -85 mV)
# Type: cell-based
# experimentalSetup: CHO-K1 cells stably expressing human Nav1.5, holding potential -85 mV, Table 5, read-out: Nav1.5 IC50 (5 Hz, AF Rate)
pIC50: −log10 of the molar value.
property: pIC50

> print(dat)
                                   compound  readoutvalue
1  CC(O)(CS(N)(=O)=O)c1cccc(-c2nnn(Cc3cc(OC(F)(F)F)ccc3F)n2)n1 (racemic) [Rac-1 + 2]          5.44
2  CC(O)(CS(N)(=O)=O)c1cc(F)cc(-c2nnn(Cc3cc(OC(F)(F)F)ccc3F)n2)c1 (single isomer, unassigned) [Example 24]          5.70
3  CC(O)(CS(N)(=O)=O)c1ccc(Cl)c(-c2nnn(Cc3cc(OC(F)(F)F)ccc3F)n2)n1 (racemic) [Rac-27 + 28]          5.96
4  CC(c1cccc(-c2nnn(Cc3cc(OC(F)(F)F)ccc3F)n2)n1)C(CO)S(N)(=O)=O (single isomer, unassigned) [Example 31]          5.96
5  CC(O)(CS(N)(=O)=O)c1cccc(-c2cnn(Cc3cc(OC(F)(F)F)ccc3F)n2)n1 (single isomer, unassigned) [Example 61]          5.30
6  CC(O)(CS(N)(=O)=O)c1nc(-c2nnn(Cc3cc(OC(F)(F)F)ccc3F)n2)ccc1Cl (single isomer, unassigned) [Example 43]          5.09

====

pIC50 listing for selected compounds.
# testedSystem: human Nav1.5 (Homo sapiens (Human), UniProt Q14524)
# experimentSummary: Qpatch automated patch-clamp, peak Nav1.5 current inhibition, 5-Hz AF-like assay (holding potential -85 mV)
# Assay type: cell-based
# experimentalSetup: CHO-K1 cells stably expressing human Nav1.5, holding potential -85 mV, Table 5, read-out: Nav1.5 IC50 (5 Hz, AF Rate)
pIC50: −log10 of the molar value.
property: pIC50

> print(dat)
                                    compound  readoutvalue
 1  CC(O)(CS(N)(=O)=O)c1cccc(-c2ccn(Cc3cc(OC(F)(F)F)ccc3F)n2)n1 (single isomer, unassigned) [Rac-37 + 38]          5.64
 2  CC(O)(CS(N)(=O)=O)c1cccc(-c2nnn(Cc3cc(OC4CC4)ccc3F)n2)n1 (single isomer, unassigned) [Example 47]          5.41
 3  CC(c1cccc(-c2nnn(Cc3cc(OC(F)(F)F)ccc3F)n2)n1)C(CO)S(N)(=O)=O (single isomer, unassigned) [Example 34]          5.66
 4  CC(O)(CS(N)(=O)=O)c1cccc(-c2nnn(Cc3cc(OC(F)(F)F)ccc3F)n2)c1F (single isomer, unassigned) [Example 11]          5.77
 5  CC(O)(CS(N)(=O)=O)c1ccc(F)c(-c2nnn(Cc3cc(OC(F)(F)F)ccc3F)n2)c1 (single isomer, unassigned) [Example 9]          5.39
 6  CC(O)(CS(N)(=O)=O)c1ccc(Cl)c(-c2nnn(Cc3cc(OC(F)(F)F)ccc3F)n2)n1 (single isomer, unassigned) [Example 27]          6.10
 7  CC(O)(CS(N)(=O)=O)c1cccc(-c2cnn(Cc3cc(OC(F)(F)F)ccc3F)n2)n1 (racemic) [Rac-61 + 62]          5.47
 8  CC(C(C)(O)c1cccc(-c2nnn(Cc3cc(OC(F)(F)F)ccc3F)n2)n1)S(N)(=O)=O (single isomer, unassigned) [Example 15]          5.39
 9  CC(O)(CS(N)(=O)=O)c1ccc(Cl)c(-c2nnn(Cc3cc(OC(F)(F)F)ccc3F)n2)c1 (single isomer, unassigned) [Example 8]          5.89
10  CC(O)(CS(N)(=O)=O)c1cccc(-c2nnn(Cc3cc(Cl)ccc3F)n2)n1 (single isomer, unassigned) [Example 21]          5.20
11  CC(O)(CS(N)(=O)=O)c1cccc(-c2nnn(Cc3cc(OC4CC4)ccc3F)n2)n1 (single isomer, unassigned) [Example 46]          5.08
12  CC(C(C)(O)c1cccc(-c2nnn(Cc3cc(OC(F)(F)F)ccc3F)n2)n1)S(N)(=O)=O (single isomer, unassigned) [Example 16]          5.55
13  CC(O)(CS(N)(=O)=O)c1cccc(-c2nnn(Cc3cc(OC(F)(F)F)ccc3F)n2)c1 (single isomer, unassigned) [Rac-25 + 26]          5.66

====

IC50 listing for selected compounds.
# testedSystem: human Nav1.5 (Homo sapiens (Human), UniProt Q14524)
# experimentSummary: Qpatch automated patch-clamp, peak Nav1.5 current inhibition, 5-Hz AF-like assay (holding potential -85 mV)
# Format: cell-based
# experimentalSetup: CHO-K1 cells stably expressing human Nav1.5, holding potential -85 mV, Table 5, read-out: Nav1.5 IC50 (5 Hz, AF Rate)
property: IC50 (µM)

> print(dat)
                                    compound  property  readoutvalue
 1  CC(O)(CS(N)(=O)=O)c1cc(-c2nnn(Cc3cc(OC(F)(F)F)ccc3F)n2)ccc1F (single isomer, unassigned) [Example 6]      IC50           7.9
 2  CC(O)(CS(N)(=O)=O)c1cccc(-c2nnn(Cc3cc(OCC(F)(F)F)ccc3F)n2)n1 (single isomer, unassigned) [Example 29]      IC50           0.8
 3  CC(O)(CS(N)(=O)=O)c1cccc(-c2nnn(Cc3c(F)ccc4c3OC(F)(F)O4)n2)n1 (single isomer, unassigned) [Example 4]      IC50           6.7
 4  CC(O)(CS(N)(=O)=O)c1cccc(-c2nc(Cc3cc(OC(F)(F)F)ccc3F)no2)n1 (single isomer, unassigned) [Example 58]      IC50             5
 5  CC(O)(CS(N)(=O)=O)c1cccc(-c2ncn(Cc3cc(OC(F)(F)F)ccc3F)n2)n1 (single isomer, unassigned) [Example 55]      IC50            19
 6  CC(C(C)(O)c1cccc(-c2nnn(Cc3cc(OC(F)(F)F)ccc3F)n2)n1)S(N)(=O)=O (single isomer, unassigned) [Example 13]      IC50           4.3
 7  CC(O)(CS(N)(=O)=O)c1cccc(-c2nnn(Cc3c(F)ccc4c3OC(F)(F)O4)n2)n1 (racemic) [Rac-3 + 4]      IC50             7
 8  C[C@](O)(CS(N)(=O)=O)c1cccc(-c2nnn(Cc3cc(OC(F)(F)F)ccc3F)n2)n1 [Example 1]      IC50           3.1
 9  CC(O)(CS(N)(=O)=O)c1cccc(-c2nc(Cc3cc(OC(F)(F)F)ccc3F)no2)n1 (racemic) [Rac-57 + 58]      IC50           3.7
10  CC(O)(CS(N)(=O)=O)c1cccc(-c2cnn(Cc3cc(OC(F)(F)F)ccc3F)n2)n1 (single isomer, unassigned) [Example 62]      IC50           3.4
11  CC(O)(CS(N)(=O)=O)c1ccc(Cl)c(-c2nnn(Cc3cc(OC(F)(F)F)ccc3F)n2)n1 (single isomer, unassigned) [Example 28]      IC50           0.7
12  CC(O)(CS(N)(=O)=O)c1ccc(F)c(-c2nnn(Cc3cc(OC(F)(F)F)ccc3F)n2)c1 (single isomer, unassigned) [Example 10]      IC50             1
13  CC(O)(CS(N)(=O)=O)c1cccc(-c2nnn(Cc3cc(OCC(F)(F)F)ccc3F)n2)n1 (single isomer, unassigned) [Example 30]      IC50             1

====

# testedSystem: human Nav1.5 (Homo sapiens (Human))
# experimentSummary: Qpatch automated patch-clamp, peak Nav1.5 current inhibition, 1 Hz with 50 nM ATX-II (holding potential -100 mV)
# Format: cell-based
# experimentalSetup: CHO-K1 cells stably expressing human Nav1.5, read-out: Nav1.5 IC50 (1 Hz, ATXII)
IC50 listing for selected compounds.
property: IC50 (µM)

> print(dat)
                                   compound  reportedrelation  readoutvalue
1  CC(O)(CS(N)(=O)=O)c1nc(-c2nnn(Cc3cc(OC(F)(F)F)ccc3F)n2)ccc1F (single isomer, unassigned) [Example 44]                 =            19
2  CC(C(C)(O)c1cccc(-c2nnn(Cc3cc(OC(F)(F)F)ccc3F)n2)n1)S(N)(=O)=O (single isomer, unassigned) [Example 14]                 =            15
3  CC(O)(CS(N)(=O)=O)c1cccc(-c2nnn(Cc3cc(Cl)ccc3F)n2)n1 (single isomer, unassigned) [Example 22]                 =            22
4  CC(O)(CS(N)(=O)=O)c1nc(-c2nnn(Cc3cc(OC(F)(F)F)ccc3F)n2)ccc1F (single isomer, unassigned) [Example 45]                 >            30

Data credit: patent US20250034108A1
